Tested on: HT-29 human colorectal adenocarcinoma cells
Experiment: cell proliferation assay, HT-29
Assay type: cell-based
Details: Table 3 summary of most active compounds; IC50; listed as L-arabinose; read-out: H729 Colorectal
parameter_measured: IC50 (µM)

[[record]]
molecule = "CON(C(C)CC(c1ccccc1)c1c(O)c2ccccc2oc1=O)C1OCC(O)C(O)C1O (mixture of isomers)"
target_system = "HT-29 human colorectal adenocarcinoma cells"
value_unit = "µM"
recorded_number = 97


###

Test system: SKOV-3 human ovarian adenocarcinoma cells
Test: cell proliferation assay, SKOV-3
Type: cell-based
Conditions: Homo sapiens, SK-OV-3, Table 3 summary of most active compounds, read-out: SKOV3 Ovarian
# maps each entry to its IC50
parameter_measured: IC50 (µM)

[[record]]
compound = "CONC(C)CC(c1ccccc1)c1c(O)c2ccccc2oc1=O (centres unmarked)"
parameter_measured = "IC50"
sign_qualifier = ">"
recorded_number = 100

[[record]]
compound = "CC(=O)CC(c1ccccc1)c1c(O)c2ccccc2oc1=O (centres unmarked) [WARF Analog A, reference compound]"
parameter_measured = "IC50"
sign_qualifier = "="
recorded_number = 393


All figures here come from patent US8278436B2.
